Exercise: state measured Inhibition yield for each of the molecules provided.
System: Bel (human liver cancer) cells
Assay: MTT antitumor activity in vitro, Bel cells
Format: cell-based
Details: 50 μg/mL, DMSO as solvent
Numbers only, in %.

Use these answered entries as a reference point.
O=C(O)C[CH2][Ge](=[O])[O][Ge](=[O])[CH2]CC(=O)O [Ge-132, carboxyethylgermanium sesquioxide, reference compound] = 0
NC(=S)NCC[CH2][Ge](=[O])[O][Ge](=[O])[CH2]CCNC(N)=S [Compound 5] = 70.9
O=C1OC(=O)C2C3OC(C[CH]3[Ge](=[O])[O][Ge](=[O])[CH]3CC4OC3C3C(=O)OC(=O)C43)C12 (centres unmarked) [Compound 1] = 0

I would be grateful if you could provide Inhibition yield for each of the following entries.
1. NN1C(=O)C2C3C[CH]([Ge](=[O])[O][Ge](=[O])[CH]4CC5OC4C4C(=O)N(N)C(=O)C54)C(O3)C2C1=O (centres unmarked) [Compound 3]
2. O=C1NC(=O)C2C3OC(C[CH]3[Ge](=[O])[O][Ge](=[O])[CH]3CC4OC3C3C(=O)NC(=O)C43)C12 (centres unmarked) [Compound 2]

Marked response:
[0, 0]
